# system.tested: Cytochrome P450 2C9 (Homo sapiens)
# assay.info: Cytochrome P450 Family 2 Subfamily C Member 9 (CYP2C9) small molecule antagonists: luciferase reporter qHTS assay (AID 1671198); note: nearly all actives have a fitted effect of over 50% in size
# test.parameters: P450-Glo CYP2C9 enzyme assay, luciferin luminescence; series mostly up to 115 µM
Records with an inconclusive call do not appear. Activity calls are given as the source filed them. Calls come from the whole dose curve; as a rule, active = well fitted inhibition curve with a large enough effect in the repeat runs; inconclusive = weak or mixed curves; inactive = no such curve, though single readings can be large or run the other way.
Entry note: the call must match one of active, inactive

For orientation, consider the following solved cases.
# compound, class.label
measured = [
    ("CC[C@H](NC(=O)c1cc(F)ccc1NS(=O)(=O)c1cccc2cccnc12)c1ccccc1", "active"),
    ("C=CC(=O)NCOCC(C)C", "inactive"),
    ("Cc1nccn1-c1ccc(Sc2cccc(C3(C(N)=O)CCOCC3)c2)cc1", "active"),
]

stdin: How was "Cc1cc(O)c2c(O)c3c(O)cccc3cc2c1" classified in this test?
stdout: active

stdin: Can you look up the reported call for "CCN(Cc1cccc(S(=O)(=O)O)c1)c1ccc(C(=C2C=CC(=[N+](CC)Cc3cccc(S(=O)(=O)[O-])c3)C=C2)c2ccccc2)cc1" for me?
stdout: active

stdin: Record request — test call for "CC(=O)Nc1ccccc1C"
stdout: inactive

stdin: Call for entry "CC(C)C(=O)O" :
stdout: inactive

stdin: Give the logged outcome of this assay for the following compound: "CCC(=O)OC/C=C/c1ccccc1"
stdout: active

---

# assay.info: qHTS assay to identify small molecule agonists of the hypoxia (HIF-1) signaling pathway - cell viability counter screen (AID 1224844); note: nearly all actives have a fitted effect of over 50% in size
# test.parameters: HRE-bla ME-180 viability, CellTiter-Glo luminescence, 17 h; series mostly up to 76.8 µM
Records with an inconclusive call do not appear. Activity calls are given as the source filed them. Calls follow the shape of the full dose curve.
Your reply should match one of these outcome classes. active, inactive

Solved entries (count: 4):
# compound, class.label
data = [
    ("O=C(O)c1ccc(CO)o1", "inactive"),
    ("Cc1ccccc1N1C(=O)c2cc(S(N)(=O)=O)c(Cl)cc2NC1C (centres undefined)", "inactive"),
    ("Cc1oc(C)c(C(=O)Nc2ccccc2)c1C", "inactive"),
    ("CC(C)OCC1CO1 (centres undefined)", "inactive"),
]

stdin: Given "C=CC(C)(C)CC(=O)OC" , state the outcome it received in this test.
stdout: active

stdin: Dear colleague, could you share the recorded outcome for CC1=CC(=O)CC(C)(C)C1(O)/C=C/C(C)=C\C(=O)O (centres undefined) when you have a moment?
stdout: inactive

---

# system.tested: Androgen receptor (Homo sapiens)
# assay.info: qHTS assay to identify small molecule agonists of the androgen receptor (AR) signaling pathway using the MDA cell line (AID 743040; note: % is set by controls: 0 for no effect and ±100 for the full control effect; nearly all actives have a fitted effect of over 20% in size)
# test.parameters: MDA-kb2 AR-luc cells, MMTV luciferase, 16 h; series mostly up to 70.3 µM
Activity calls are given as the source filed them. Calls follow the shape of the dose curve; as a rule, active = well fitted activation curve with a large enough effect in the repeat runs; inconclusive = weak or mixed curves; inactive = flat fitted curve, though single readings scatter.
# output must be one of Y (active), N (inactive)

Consider the following illustrative entries.
# compound, class.label
measured = [
    ("ON(Cc1ccccc1)Cc1ccccc1", "N"),
    ("COc1cc2ncnc(Nc3ccc(F)c(Cl)c3)c2cc1OCCCN1CCOCC1", "N"),
    ("CSc1ccc(Oc2ccc(S(N)(=O)=O)cc2CN(C)C)cc1C", "N"),
    ("O=C(O)Cc1ccc(-c2ccccc2)cc1", "N"),
    ("CCCc1c(OCCCOc2ccc(OCC(=O)O)cc2)ccc(C(C)=O)c1O", "N"),
    ("Cc1c(C(=O)NN2CCCCC2)nn(-c2ccc(Cl)cc2Cl)c1-c1ccc(Cl)cc1", "N"),
    ("CCCCC1C(=O)N(c2ccccc2)N(c2ccc(O)cc2)C1=O (centres undefined)", "N"),
    ("CCOC(=O)C(C)Oc1ccc(Oc2nc3ccc(Cl)cc3o2)cc1 (centres undefined)", "N"),
    ("C[N+](C)(C)CCOC(N)=O", "N"),
    ("CNC(=S)NC", "N"),
]

stdin: Please share the test call associated with "COc1ccc(CCC(=O)c2c(O)cc(O[C@@H]3O[C@H](CO)[C@@H](O)[C@H](O)[C@H]3O[C@@H]3O[C@@H](C)[C@H](O)[C@@H](O)[C@H]3O)cc2O)cc1O" .
stdout: N

stdin: I would be grateful if you could indicate the recorded call for "COc1ccc(C(=O)c2cccc(O)c2)c(OC)c1" .
stdout: N

stdin: Which outcome was entered for the compound NCC1CCCC(CN)C1 (centres undefined) in this test?
stdout: N

---

# assay.info: qHTS assay to identify small molecule antagonists of the thyroid receptor (TR) signaling pathway (AID 743065); note: nearly all actives have a fitted effect of over 55% in size
# test.parameters: GH3.TRE-Luc, T3-stimulated luciferase inhibition, 23.5 h; series mostly up to 70.3 µM
Results filed as inconclusive are left out. The source made the active and inactive calls. Calls come from the whole dose curve; as a rule, active = well fitted inhibition curve with a large enough effect in the repeat runs; inconclusive = weak or mixed curves; inactive = no such curve, though single readings can be large or run the other way.
Answer with one of the outcomes given here: True = active, False = inactive

# compound, class.label
data = [
    ("CCCCC(=O)O[C@]1(C(=O)CO)[C@@H](C)C[C@H]2[C@@H]3CCC4=CC(=O)C=C[C@]4(C)[C@@]3(F)[C@@H](O)C[C@@]21C", "True"),
    ("Cc1cc2nc3ccc(=[N+](C)C)cc-3sc2cc1N", "True"),
    ("CC(COc1ccc(C(C)(C)C)cc1)OS(=O)OCCCl (stereo not drawn)", "False"),
    ("CCCCCCCCCCCC[N+](C)(C)CCCS(=O)(=O)[O-]", "True"),
    ("CC(CCO)CCc1ccccc1 (stereo not drawn)", "False"),
    ("C/C=C/C=C/CCCCCCCO", "True"),
]

stdin: // return assay outcome for "COC(OC)(C(=O)c1ccccc1)c1ccccc1"
stdout: False

stdin: How did this test come out for "NC(=O)N(O)[C@@H]1C=C[C@H](Oc2cccc(Oc3ccc(F)cc3)c2)C1" ?
stdout: True

stdin: Which result was noted for this compound in the test: "CCCCCCCC/C=C\CCCCCCCC(=O)OC"
stdout: False

---

# assay.info: qHTS assay to identify small molecule antagonists of the estrogen receptor alpha (ER-alpha) signaling pathway - cell viability counter screen (AID 743074);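 note: HEK293 cells carrying ER-alpha-UAS-bla reporter stimulated with 17beta-estradiol; % is set by controls: 0 for no effect and ±100 for the full control effect; nearly all actives have a fitted effect of over 45% in size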
# test.parameters: ERalpha-bla HEK293 viability, CellTiter-Glo luminescence, 18 h; series mostly up to 69.4 µM
Results filed as inconclusive are left out. The source made the active and inactive calls. Calls come from the whole dose curve.
Valid outcomes are listed here; reply with one: active, inactive

# compound, class.label
data = [
    ("O=C(O)c1ccc(CO)o1", "inactive"),
]

stdin: Name the outcome recorded for "CCCCC(=O)O[C@]1(C(=O)CO)[C@@H](C)C[C@H]2[C@@H]3CCC4=CC(=O)C=C[C@]4(C)[C@@]3(F)[C@@H](O)C[C@@]21C" in the assay.
stdout: inactive

stdin: How did this test come out for CO/N=C1\CN(c2nc3c(cc2F)c(=O)c(C(=O)O)cn3C2CC2)CC1CN (stereo not drawn) ?
stdout: inactive

stdin: Query: recorded result category for "NC(=O)N(O)[C@@H]1C=C[C@H](Oc2cccc(Oc3ccc(F)cc3)c2)C1" in this test
stdout: inactive

stdin: Could you check what this test reported for CC(C)(C)C(=O)C(Oc1ccc(Cl)cc1)n1ccnc1 (stereo not drawn) ?
stdout: inactive

---

# system.tested: Glucocorticoid receptor (Homo sapiens)
# assay.info: qHTS assay to identify small molecule agonists of the glucocorticoid receptor (GR) signaling pathway (AID 720691); note: % is set by controls: 0 for no effect and ±100 for the full control effect
# test.parameters: GR-bla HeLa, beta-lactamase reporter ratio, 18 h; series mostly up to 62.4 µM
Results filed as inconclusive are left out. Activity calls are given as the source filed them. Calls follow the shape of the dose curve; as a rule, active = well fitted activation curve with a large enough effect in the signal ratio in the repeat runs (not every such curve was filed as active); inconclusive = weak or mixed curves, or effect the other way; inactive = no such curve, though single readings can be large or run the other way; the % refers to the signal ratio.
Classes to choose from: active, inactive

stdin: Given "c1ccc(COCc2ccccc2)cc1" , state the outcome it received in this test.
stdout: inactive

stdin: What is the recorded call for this compound in the test? "C=CCOC(=O)/C=C\C(=O)OCC=C"
stdout: inactive

stdin: I would be grateful if you could indicate the recorded call for "O=C(c1ccc(O)cc1)c1ccc(Cl)cc1" .
stdout: inactive

---

# assay.info: qHTS assay to test for compound auto fluorescence at 535 nm (green) in HEK293 cell free culture (AID 720682); note: % is set by controls: 0 for no effect and ±100 for the full control effect
# test.parameters: cell-free medium, green autofluorescence 485/535 nm, stronger effect = higher value; series mostly up to 91.3 µM
Activity calls are given as the source filed them. Calls follow the shape of the dose curve; as a rule, active = well fitted curve in the direction sought with a large enough effect in the repeat runs; inconclusive = weak or mixed curves; inactive = flat fitted curve, though single readings scatter.
parameter.measured: activity change

Please review the entries below; each comes with its answer.
# compound.structure.string, activity change
rows = [
    ("C[C@]12CCC(=O)C=C1C=C[C@@H]1[C@@H]2CC[C@@]2(C)[C@H]1CC[C@@]21CCC(=O)O1", "inactive"),
    ("CNCCCC1c2ccccc2C=Cc2ccccc21", "0.0344% [at 18.6 µM] (inactive)"),
    ("CC(C)CCCC(=O)O", "inactive"),
    ("C/C=C/C=C/CCCCCCCO", "inactive"),
    ("Cc1ccc(/C=N/n2c(-c3ccccc3)csc2=S)cc1", "inactive"),
]

Let us examine a further case.
For this molecule ( "NC(=O)Nc1ccc(Cl)c(Cl)c1" ), measured activity change is inactive

---

# assay.info: qHTS assay for identifying genotoxic compounds that show differential cytotoxicity against isogenic chicken DT40 cell lines with known DNA damage response pathways - wild type cell line (AID 743012); note: nearly all actives have a fitted effect of over 60% in size
# test.parameters: DT40 wild type chicken cells viability, CellTiter-Glo, 40 h; series mostly up to 68.4 µM
# Text: U.S. Tox21 Program National Center for Advancing Translational Sciences [NCATS] NIH Chemical Genomics Center [NCGC] U.S. Environmental Protection Agency [EPA] National Institutes of Environmental Health Sciences [NIEHS] National Toxicology Program [NTP] U.S. Food and Drug Administration [FDA] Tox21 Assay Overview: DNA repair pathways play a critical role in cellular homeostasis by repairing DNA damage induced by endogenous processes and xenobiotics. […]
Records with an inconclusive call do not appear. Active and inactive are the calls of the source. Calls follow the shape of the dose curve; as a rule, active = well fitted cell-killing curve with a large enough effect in the repeat runs; inconclusive = weak or mixed curves, or effect the other way; inactive = no such curve, though single readings can be large or run the other way.
Classes to choose from: class 1 (active), class 0 (inactive)

Sample answers from the record:
# molecule, class.label
measured = [
    ("ON(Cc1ccccc1)Cc1ccccc1", "class 0"),
    ("Nc1nccs1", "class 0"),
    ("CC1=CC(=O)CC(C)(C)C1(O)/C=C/C(C)=C\\C(=O)O (centres undefined)", "class 0"),
    ("Fc1c(F)c(F)c(Br)c(F)c1F", "class 0"),
    ("CC(=O)Oc1ccc2c(c1)CC[C@@H]1[C@@H]2CC[C@]2(C)[C@@H](O)CC[C@@H]12", "class 1"),
]

stdin: Outcome logged for "O=C(NCCCN1CCOCC1)c1ccc(Cl)cc1" in this assay:
stdout: class 0

stdin: Any idea what this test logged for "CCCC(=O)O[C@]1(C(=O)COC(=O)CC)CC[C@H]2[C@@H]3CCC4=CC(=O)CC[C@]4(C)[C@H]3[C@@H](O)C[C@@]21C" ?
stdout: class 0

stdin: Write down the call the test reported for this molecule. Item: "CCNC(=O)N1CCN(CCCC(c2ccc(F)cc2)c2ccc(F)cc2)CC1"
stdout: class 1
